# Test system: Enterobacter cloacae
# assay.name: Antibacterial activity against Enterobacter cloacae at 10 mg/ml after 24 hrs by cut-plug method
# Assay type: functional
Activity calls are given as the source filed them. The calls are words filed in the database; no cut-off is given here.
measurement.name: diameter of the inhibition zone (DIZ)

# annotated cases, reported diameter of the inhibition zone (DIZ) shown
[
  {
    "chem.smiles": "COc1ccc(-c2c(C#N)c(-c3ccc(C)cc3)nc3c2c(-c2cccnc2)nn3-c2ccccc2)cc1",
    "diameter of the inhibition zone (DIZ)": "inactive"
  },
  {
    "chem.smiles": "COc1ccc(-c2c(C#N)c(-c3ccccc3)nc3c2c(-c2cccnc2)nn3-c2ccccc2)cc1",
    "diameter of the inhibition zone (DIZ)": "inactive"
  },
  {
    "chem.smiles": "COc1ccc(-c2c(C#N)c(-c3ccc(Cl)cc3)nc3c2c(-c2cccnc2)nn3-c2ccccc2)cc1",
    "diameter of the inhibition zone (DIZ)": "inactive"
  },
  {
    "chem.smiles": "O=C(O)c1cc(-c2ccccc2)c2c(-c3cccnc3)nn(-c3ccccc3)c2n1",
    "diameter of the inhibition zone (DIZ)": "inactive"
  },
  {
    "chem.smiles": "CCN(CC)c1ccc(-c2cc(C(=O)O)nc3c2c(-c2cccnc2)nn3-c2ccccc2)cc1",
    "diameter of the inhibition zone (DIZ)": "inactive"
  },
  {
    "chem.smiles": "O=C(O)c1cc(-c2ccc(O)cc2)c2c(-c3cccnc3)nn(-c3ccccc3)c2n1",
    "diameter of the inhibition zone (DIZ)": "inactive"
  },
  {
    "chem.smiles": "COc1ccc(-c2c(C#N)c(-c3ccc(F)cc3)nc3c2c(-c2cccnc2)nn3-c2ccccc2)cc1",
    "diameter of the inhibition zone (DIZ)": "inactive"
  },
  {
    "chem.smiles": "COc1ccc(-c2c(C#N)c(-c3cccnc3)nc3c2c(-c2cccnc2)nn3-c2ccccc2)cc1",
    "diameter of the inhibition zone (DIZ)": "inactive"
  },
  {
    "chem.smiles": "COc1ccc(-c2c(C#N)c(-c3ccc([N+](=O)[O-])cc3)nc3c2c(-c2cccnc2)nn3-c2ccccc2)cc1",
    "diameter of the inhibition zone (DIZ)": "inactive"
  }
]

// next entry
Could you tell me which diameter of the inhibition zone (DIZ) is on file for O=C(O)c1cc(-c2ccc(Br)cc2)c2c(-c3cccnc3)nn(-c3ccccc3)c2n1 ?
inactive
